Data origin: patent US20230219906A1

# System: MOLP-8 human multiple myeloma cell line
# Method Notes: Caspase-Glo 3/7 apoptosis induction assay in MOLP-8 cells
# Format: cell-based
# Settings: Homo sapiens, MOLP-8, 2 h, caspase-3/7 activity, 2 hours at 37° C.; averaged over all runs on all batches; read-out: MOLP8 AC50
Property Measured: AC50 (nM)
Field: numeric (nM). Do not append units.

• C[C@@H]1[C@@H](C)C/C=C(\F)[C@H](C(=O)N(C)c2ccccc2)N2CCC[C@H]2CN2C[C@@]3(CCCc4cc(Cl)ccc43)COc3ccc(cc32)C(=O)NS1(=O)=O = 302
• C[C@@H]1[C@@H](C)C/C=C(\F)[C@H](C(=O)N(C)CCO)N2CCC[C@H]2CN2C[C@@]3(CCCc4cc(Cl)ccc43)COc3ccc(cc32)C(=O)NS1(=O)=O = 396
• C[C@@H]1[C@@H](C)C/C=C(\F)[C@H](C(=O)N(C)CC2OCCO2)N2CCC[C@H]2CN2C[C@@]3(CCCc4cc(Cl)ccc43)COc3ccc(cc32)C(=O)NS1(=O)=O = 106
• C[C@@H]1[C@@H](C)C/C=C(\F)[C@H](C(=O)N(C)CCN2CC(F)(F)C2)N2CCC[C@H]2CN2C[C@@]3(CCCc4cc(Cl)ccc43)COc3ccc(cc32)C(=O)NS1(=O)=O = 84.8
• C[C@@H]1[C@@H](C)C/C=C(\F)[C@H](C(=O)N2CC(C)(N3CCOCC3)C2)N2CCC[C@H]2CN2C[C@@]3(CCCc4cc(Cl)ccc43)COc3ccc(cc32)C(=O)NS1(=O)=O = 317
• C[C@@H]1[C@@H](C)C/C=C(\F)[C@H](C(=O)N(C)Cc2nnn(C)n2)N2CCC[C@H]2CN2C[C@@]3(CCCc4cc(Cl)ccc43)COc3ccc(cc32)C(=O)NS1(=O)=O = 120
• C[C@@H]1[C@@H](C)C/C=C(\F)[C@H](C(=O)N2CC[C@@H](C#N)C2)N2CCC[C@H]2CN2C[C@@]3(CCCc4cc(Cl)ccc43)COc3ccc(cc32)C(=O)NS1(=O)=O = 241
• C[C@@H]1[C@@H](C)C/C=C(\F)C(CO)(C(=O)N(C)CCN2CCOCC2)N2CCC[C@H]2CN2C[C@@]3(CCCc4cc(Cl)ccc43)COc3ccc(cc32)C(=O)NS1(=O)=O (stereo partly drawn) = 1600

response.value for C[C@@H]1[C@@H](C)C/C=C(\F)[C@H](C(=O)N(C)C2CCOC2)N2CCC[C@H]2CN2C[C@@]3(CCCc4cc(Cl)ccc43)COc3ccc(cc32)C(=O)NS1(=O)=O (single isomer, unassigned) [Compound 68] (field: AC50) = 103

---

# Tested on: MOLP-8 human multiple myeloma cell line
# Method Notes: Caspase-Glo 3/7 apoptosis induction assay in MOLP-8 cells
# Assay type: cell-based
# Settings: Homo sapiens, MOLP-8, 2 h, caspase-3/7 activity, 2 hours at 37° C.; averaged over all runs on all batches; read-out: MOLP8 AC50
Property Measured: AC50
Returns: string containing the numeric result and its unit.

# annotated cases, reported AC50 shown
* CCS(=O)(=O)CCN(C)C(=O)[C@H]1/C(F)=C/C[C@H](C)[C@@H](C)S(=O)(=O)NC(=O)c2ccc3c(c2)N(C[C@@H]2CCCN21)C[C@@]1(CCCc2cc(Cl)ccc21)CO3 | 557 nM
* COCCCN(CCOC)C(=O)[C@H]1/C(F)=C/C[C@H](C)[C@@H](C)S(=O)(=O)NC(=O)c2ccc3c(c2)N(C[C@@H]2CCCN21)C[C@@]1(CCCc2cc(Cl)ccc21)CO3 | 41.9 nM
* C[C@@H]1[C@@H](C)C/C=C(\F)[C@H](C(=O)N(C)CCCN2CCOCC2)N2CCC[C@H]2CN2C[C@@]3(CCCc4cc(Cl)ccc43)COc3ccc(cc32)C(=O)NS1(=O)=O | 111 nM
* C[C@@H]1[C@@H](C)C/C=C(\F)[C@H](C(=O)N2CC(C(F)(F)F)C2)N2CCC[C@H]2CN2C[C@@]3(CCCc4cc(Cl)ccc43)COc3ccc(cc32)C(=O)NS1(=O)=O | 399 nM
* C[C@@H]1[C@@H](C)C/C=C(\F)[C@H](C(=O)N(C)C2CCCOC2)N2CCC[C@H]2CN2C[C@@]3(CCCc4cc(Cl)ccc43)COc3ccc(cc32)C(=O)NS1(=O)=O (single isomer, unassigned) [Compound 62] | 134 nM
* C[C@@H]1[C@@H](C)C/C=C(\F)[C@H](C(=O)N2CCOC[C@@H]2C)N2CCC[C@H]2CN2C[C@@]3(CCCc4cc(Cl)ccc43)COc3ccc(cc32)C(=O)NS1(=O)=O | 196 nM
* COCCCN(CCCOC)C(=O)[C@H]1/C(F)=C/C[C@H](C)[C@@H](C)S(=O)(=O)NC(=O)c2ccc3c(c2)N(C[C@@H]2CCCN21)C[C@@]1(CCCc2cc(Cl)ccc21)CO3 | 49.5 nM
* C[C@@H]1[C@@H](C)C/C=C(\F)[C@H](C(=O)N2CCCC3(CCOC3)C2)N2CCC[C@H]2CN2C[C@@]3(CCCc4cc(Cl)ccc43)COc3ccc(cc32)C(=O)NS1(=O)=O (single isomer, unassigned) | 266 nM
* C[C@@H]1[C@@H](C)C/C=C(\F)[C@H](C(=O)N(C)CC2CCCCO2)N2CCC[C@H]2CN2C[C@@]3(CCCc4cc(Cl)ccc43)COc3ccc(cc32)C(=O)NS1(=O)=O (single isomer, unassigned) | 94.2 nM

// below: AC50 requested for another molecule
response.value for C[C@@H]1[C@@H](C)C/C=C(\F)[C@@H](C(=O)N2C[C@H]3C[C@@H]2CO3)N2CCC[C@H]2CN2C[C@@]3(CCCc4cc(Cl)ccc43)COc3ccc(cc32)C(=O)NS1(=O)=O (field: AC50) = 285 nM

---

# System Name: UniProtKB Q07820
# Sequence (Q07820 whole entry): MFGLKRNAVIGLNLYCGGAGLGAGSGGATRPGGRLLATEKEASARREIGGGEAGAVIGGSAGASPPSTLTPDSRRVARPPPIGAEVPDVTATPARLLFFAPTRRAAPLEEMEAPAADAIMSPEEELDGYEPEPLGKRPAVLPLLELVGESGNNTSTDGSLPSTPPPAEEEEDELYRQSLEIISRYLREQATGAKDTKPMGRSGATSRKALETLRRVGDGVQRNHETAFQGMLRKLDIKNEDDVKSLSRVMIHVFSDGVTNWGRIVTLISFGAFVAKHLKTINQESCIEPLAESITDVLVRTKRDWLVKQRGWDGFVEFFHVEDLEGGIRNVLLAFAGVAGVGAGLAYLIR
# Method Notes: Terbium labeled Mcl-1 HTRF binding assay with Cy5-labeled BIM BH3 peptide
# Settings: displacement of Cy5 Bim BH3 peptide; Ki=IC50/(1+[L]/Kd), [L]=8 nM, Kd=10 nM; 60 minutes at room temperature; read-out: Tb-MCL1 Ki
Parameter: Ki. Scope: all listed entries.
Returns: string containing the numeric result and its unit.

# annotated cases, reported Ki shown
- C[C@@H]1[C@@H](C)C/C=C(\F)[C@H](C(=O)N2CCN(C)[C@@H](C)C2)N2CCC[C@H]2CN2C[C@@]3(CCCc4cc(Cl)ccc43)COc3ccc(cc32)C(=O)NS1(=O)=O [Compound 24]: 0.068 nM
- C[C@@H]1[C@@H](C)C/C=C(\F)[C@H](C(=O)N2CC(C(F)(F)F)C2)N2CCC[C@H]2CN2C[C@@]3(CCCc4cc(Cl)ccc43)COc3ccc(cc32)C(=O)NS1(=O)=O [Compound 36]: 0.325 nM

// below: Ki requested for another compound
response.value for C[C@@H]1[C@@H](C)C/C=C(\F)[C@@H](C(=O)N2C[C@H]3C[C@@H]2CO3)N2CCC[C@H]2CN2C[C@@]3(CCCc4cc(Cl)ccc43)COc3ccc(cc32)C(=O)NS1(=O)=O [Compound 10] (field: Ki) = 0.227 nM

---

# Test system: MOLP-8 human multiple myeloma cell line
# Method Notes: Caspase-Glo 3/7 apoptosis induction assay in MOLP-8 cells
# Format: cell-based
# Settings: Homo sapiens, MOLP-8, 2 h, caspase-3/7 activity, 2 hours at 37° C.; averaged over all runs on all batches; read-out: MOLP8 AC50
Parameter: AC50. Scope: all listed entries.

# annotated cases, reported AC50 shown
• CO[C@H]1CN(C(=O)[C@H]2/C(F)=C/C[C@H](C)[C@@H](C)S(=O)(=O)NC(=O)c3ccc4c(c3)N(C[C@@H]3CCCN32)C[C@@]2(CCCc3cc(Cl)ccc32)CO4)C[C@H]1OC = 92.3 nM
• CC(C)N(C)C(=O)[C@H]1/C(F)=C/C[C@H](C)[C@@H](C)S(=O)(=O)NC(=O)c2ccc3c(c2)N(C[C@@H]2CCCN21)C[C@@]1(CCCc2cc(Cl)ccc21)CO3 = 238 nM
• C[C@@H]1[C@@H](C)C/C=C(\F)[C@H](C(=O)N(C)CCN2CCOC(C(F)(F)F)C2)N2CCC[C@H]2CN2C[C@@]3(CCCc4cc(Cl)ccc43)COc3ccc(cc32)C(=O)NS1(=O)=O (single isomer, unassigned) = 366 nM
• COCCOCCN(C)C(=O)[C@H]1/C(F)=C/C[C@H](C)[C@@H](C)S(=O)(=O)NC(=O)c2ccc3c(c2)N(C[C@@H]2CCCN21)C[C@@]1(CCCc2cc(Cl)ccc21)CO3 = 79.3 nM
• C[C@@H]1[C@@H](C)C/C=C(\F)[C@H](C(=O)N(C)CC(F)(F)F)N2CCC[C@H]2CN2C[C@@]3(CCCc4cc(Cl)ccc43)COc3ccc(cc32)C(=O)NS1(=O)=O = 351 nM

Field AC50 (system: MOLP-8 human multiple myeloma cell line) for entry C[C@@H]1[C@@H](C)C/C=C(\F)[C@@H](C(=O)N(C)CCN2CCOCC2)N2CCC[C@H]2CN2C[C@@]3(CCCc4cc(Cl)ccc43)COc3ccc(cc32)C(=O)NS1(=O)=O (single isomer, unassigned) = 218 nM

Field AC50 (system: MOLP-8 human multiple myeloma cell line) for entry COCCN(C)C(=O)[C@H]1/C(F)=C/C[C@H](C)[C@@H](C)S(=O)(=O)NC(=O)c2ccc3c(c2)N(C[C@@H]2CCCN21)C[C@@]1(CCCc2cc(Cl)ccc21)CO3 = 78 nM

Field AC50 (system: MOLP-8 human multiple myeloma cell line) for entry C[C@@H]1[C@@H](C)C/C=C(\F)[C@H](C(=O)N(C)CCN2CCCOCC2)N2CCC[C@H]2CN2C[C@@]3(CCCc4cc(Cl)ccc43)COc3ccc(cc32)C(=O)NS1(=O)=O = 83 nM

Field AC50 (system: MOLP-8 human multiple myeloma cell line) for entry COC1(C(F)(F)F)CN(C(=O)[C@H]2/C(F)=C/C[C@H](C)[C@@H](C)S(=O)(=O)NC(=O)c3ccc4c(c3)N(C[C@@H]3CCCN32)C[C@@]2(CCCc3cc(Cl)ccc32)CO4)C1 = 463 nM
